PROTOCOL DESCRIPTION: Population pharmacokinetic analysis of repagermanium (studies DMX-200-101, -202, -203; LC-MS/MS plasma levels)
Format: in vivo, human
PARTICULARS: human, plasma, 240 mg/day, study 202, FSGS patients; 240 mg total daily dose; read-out: AUC24h, steady state, median

- COMPOUND: "O=C(O)C[CH2][Ge](=[O])[O][Ge](=[O])[CH2]CC(=O)O [repagermanium]"
  AUC(0-t) at 24 h: "16700 ng·h/mL"

###

PROTOCOL DESCRIPTION: Population pharmacokinetic analysis of repagermanium (studies DMX-200-101, -202, -203; LC-MS/MS plasma levels)
Assay type: in vivo, human
PARTICULARS: human, plasma, po, study 101, healthy volunteers, oral; read-out: Clearance, median (converted)
QUANTITY KIND: CL/F (mL/min)

- STRUCTURE NOTATION: "O=C(O)C[CH2][Ge](=[O])[O][Ge](=[O])[CH2]CC(=O)O"
  QUANTITY KIND: "CL/F"
  UOM: "mL/min"
  VALUE MEASURED: 670

###

PROTOCOL DESCRIPTION: Population pharmacokinetic analysis of repagermanium (studies DMX-200-101, -202, -203; LC-MS/MS plasma levels)
Format: in vivo, human
PARTICULARS: human, plasma, 240 mg/day, study 101, healthy volunteers; 240 mg total daily dose; read-out: AUC24h, steady state, median

- COMPOUND: "O=C(O)C[CH2][Ge](=[O])[O][Ge](=[O])[CH2]CC(=O)O [repagermanium]"
  AUC(0-t) at 24 h [ng·h/mL]: 9800

###

PROTOCOL DESCRIPTION: Population pharmacokinetic analysis of repagermanium (studies DMX-200-101, -202, -203; LC-MS/MS plasma levels)
Assay type: in vivo, human
PARTICULARS: human, plasma; 120 mg BID; read-out: steady state AUC

- MOLECULE: "O=C(O)C[CH2][Ge](=[O])[O][Ge](=[O])[CH2]CC(=O)O [repagermanium]"
  AUC: "~15000 ng·h/mL"

###

PROTOCOL DESCRIPTION: Population pharmacokinetic analysis of repagermanium (studies DMX-200-101, -202, -203; LC-MS/MS plasma levels)
Format: in vivo, human
PARTICULARS: human, plasma, po, study 203, DKD patients receiving irbesartan, 120 mg bid oral; read-out: Clearance, median (converted)
QUANTITY KIND: CL/F (mL/min)

- STRUCTURE NOTATION: "O=C(O)C[CH2][Ge](=[O])[O][Ge](=[O])[CH2]CC(=O)O"
  VALUE MEASURED: 345

Data origin, for the record: patent US20260315521A1
